Cited source for all entries: paper PMC6751662

Recorded measurements of IP accumulation, x-fold of basal (mean), NPFF2R, one per entry
- target-desc: NPFF2R (Homo sapiens, UniProt Q9Y5X5)
- Construct: expressed in transfected cells; host or cells: HEK293, transient
- Sequence (Q9Y5X5 103-522): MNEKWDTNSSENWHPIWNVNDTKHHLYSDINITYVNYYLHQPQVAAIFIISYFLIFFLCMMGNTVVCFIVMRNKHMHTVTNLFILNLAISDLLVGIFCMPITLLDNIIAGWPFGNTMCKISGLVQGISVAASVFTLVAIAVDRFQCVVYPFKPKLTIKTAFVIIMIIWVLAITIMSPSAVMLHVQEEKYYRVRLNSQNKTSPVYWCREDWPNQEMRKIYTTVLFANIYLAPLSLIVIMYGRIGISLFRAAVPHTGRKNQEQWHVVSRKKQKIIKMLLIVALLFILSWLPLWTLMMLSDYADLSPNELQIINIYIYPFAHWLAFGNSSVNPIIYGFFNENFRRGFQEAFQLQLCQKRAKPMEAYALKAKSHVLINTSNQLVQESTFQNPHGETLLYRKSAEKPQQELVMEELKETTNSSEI
- method-description: IP accumulation assay, chimeric GαΔ6qi4myr, NPFF2R
- Type: cell-based
- conditions-used: 10 µM peptide; chimeric GαΔ6qi4myr co-transfected; transiently transfected HEK293 cells; mean of at least three independent experiments
- Method: For measuring IP accumulation, HEK293 cells grown to 70–80% confluency in 6-well plates were transiently co-transfected using Metafectene Pro (2.5 μl/μg DNA; Biontex) with plasmids containing receptor and/or mock (empty pcDNA3.1) (for endogenous Gq-coupling) using 4 μg total DNA in a ratio of 3:1 following the manufacturer’s instructions. […] IP accumulation was measured with the HTRF-based IP-One Gq kit (Cisbio) on a microplate reader (Tecan Spark). […]

Examples with their reported IP accumulation, x-fold of basal (mean), NPFF2R follow.
APLEPVYPGDNATPEQMAQYAADLRRYINMLTRPRY-NH2 [PP, human pancreatic polypeptide, reference compound]
1.44 x-fold of basal
NPENDTPFGTMRF-NH2 [FLP-3-4, C. elegans FMRFamide-like peptide, C-terminally amidated, synthesized by SPPS]
3.28 x-fold of basal
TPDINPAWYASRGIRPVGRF-NH2 [PrRP20, human prolactin-releasing peptide, 20 residues, reference compound]
2.32 x-fold of basal

Moving on to another substance below.
QUERY: Would you please give the reported IP accumulation, x-fold of basal (mean), NPFF2R of TSGPLGNLAEELNGYSRKKGGFSFRF-NH2 [QRFP26, human pyroglutamylated RFamide peptide, 26 residues, reference compound] with NPFF2R (Homo sapiens, UniProt Q9Y5X5)?
RESULT: 2.58 x-fold of basal
